Measured values drawn from patent US9586928B2 for this set.

- experimental system: LXR (Homo sapiens, UniProt Q13133)
- Sequence (Q13133 209-447 limits assumed): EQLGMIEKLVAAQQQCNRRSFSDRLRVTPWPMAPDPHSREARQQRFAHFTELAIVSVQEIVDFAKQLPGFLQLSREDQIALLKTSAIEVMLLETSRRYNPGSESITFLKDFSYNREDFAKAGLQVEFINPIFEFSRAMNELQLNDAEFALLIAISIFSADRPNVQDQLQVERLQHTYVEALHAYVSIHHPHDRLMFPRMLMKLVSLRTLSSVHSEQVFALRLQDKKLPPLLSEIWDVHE
- assay remarks: Gal4-LXRα / UAS luciferase cotransfection assay
- Assay type: cell-based
- condition summary: 10 μM

- compound: "OC(c1ccc(-c2ccc(CN3CCC(Nc4ccncc4)CC3)cc2)cc1)(C(F)(F)F)C(F)(F)F [Compound 104]"
  LXR activation, fold change over DMSO (fold change over DMSO): 1.1
- compound: "O=C(c1ccc(-c2ccc(C(O)(C(F)(F)F)C(F)(F)F)cc2)cc1)N1CCN(Cc2ccncc2)CC1 [Compound 100]"
  LXR activation, fold change over DMSO (fold change over DMSO): 0.8
- compound: "OC(c1ccc(-c2ccc(CN3CCN(c4ccccc4)CC3)cc2)cc1)(C(F)(F)F)C(F)(F)F [Compound 14]"
  LXR activation, fold change over DMSO (fold change over DMSO): 5
- compound: "CCCNC(=O)N1CCN(Cc2ccc(-c3ccc(C(O)(C(F)(F)F)C(F)(F)F)cc3)cc2)CC1 [Compound 22]"
  LXR activation, fold change over DMSO (fold change over DMSO): 1.8
- compound: "O=C(NCc1ccccc1)N1CCN(Cc2ccc(-c3ccc(C(O)(C(F)(F)F)C(F)(F)F)cc3)cc2)CC1 [Compound 24]"
  LXR activation, fold change over DMSO (fold change over DMSO): 1.3
- compound: "COc1cc(-c2ccc(C(O)(C(F)(F)F)C(F)(F)F)cc2)ccc1CN1CCN(Cc2ccncc2)CC1 [Compound 97]"
  LXR activation, fold change over DMSO (fold change over DMSO): 1
- compound: "OC(c1ccc(-c2ccc(CN3CCN(Cc4ccncc4)CC3)cc2F)cc1)(C(F)(F)F)C(F)(F)F [Compound 95]"
  LXR activation, fold change over DMSO (fold change over DMSO): 5
- compound: "OC(c1ccc(-c2ccc(CN3CCN(Cc4ccncc4)CC3)c(Cl)c2)cc1)(C(F)(F)F)C(F)(F)F [Compound 93]"
  LXR activation, fold change over DMSO (fold change over DMSO): 1.5
- compound: "OC(c1ccc(-c2ccc(CN3CCN(Cc4ccncc4)CC3)c(F)c2)cc1)(C(F)(F)F)C(F)(F)F [Compound 98]"
  LXR activation, fold change over DMSO (fold change over DMSO): 2
- compound: "OC(c1ccc(-c2ccc(CN3CCN(Cc4ccncc4Cl)CC3)cc2)cc1)(C(F)(F)F)C(F)(F)F [Compound 92]"
  LXR activation, fold change over DMSO (fold change over DMSO): 5
- compound: "OC(c1ccc(-c2ccc(CN3CCN(Cc4ccncc4)CC3)cc2)cc1)(C(F)(F)F)C(F)(F)F [Compound 1]"
  LXR activation, fold change over DMSO (fold change over DMSO): 1
- compound: "OC(c1ccc(-c2ccc(CN3CCN(Cc4ccnc(Br)c4)CC3)cc2)cc1)(C(F)(F)F)C(F)(F)F [Compound 40]"
  LXR activation, fold change over DMSO (fold change over DMSO): 1
- compound: "OCCN1CCN(Cc2ccc(-c3ccc(C(O)(C(F)(F)F)C(F)(F)F)cc3)cc2)CC1 [Compound 2]"
  LXR activation, fold change over DMSO (fold change over DMSO): 1.1
- compound: "O=S(=O)(c1ccccc1)N1CCN(Cc2ccc(-c3ccc(C(O)(C(F)(F)F)C(F)(F)F)cc3)cc2)CC1 [Compound 29]"
  LXR activation, fold change over DMSO (fold change over DMSO): 1.8
- compound: "OC(c1ccc(-c2ccc(CN3CCN(CCc4ccccc4)CC3)cc2)cc1)(C(F)(F)F)C(F)(F)F [Compound 11]"
  LXR activation, fold change over DMSO (fold change over DMSO): 1
- compound: "CCC(=O)N1CCN(Cc2ccc(-c3ccc(C(O)(C(F)(F)F)C(F)(F)F)cc3)cc2)CC1 [Compound 25]"
  LXR activation, fold change over DMSO (fold change over DMSO): 1
- compound: "O=C(Nc1ccccc1)N1CCN(Cc2ccc(-c3ccc(C(O)(C(F)(F)F)C(F)(F)F)cc3)cc2)CC1 [Compound 23]"
  LXR activation, fold change over DMSO (fold change over DMSO): 2
- compound: "OC(c1ccc(-c2ccc(CN3CCN(Cc4cc5cc(F)ccc5[nH]4)CC3)cc2)cc1)(C(F)(F)F)C(F)(F)F [Compound 20]"
  LXR activation, fold change over DMSO (fold change over DMSO): 2.5
- compound: "OC(c1ccc(-c2ccc(CN3CCN(CC4COc5ccccc5O4)CC3)cc2)cc1)(C(F)(F)F)C(F)(F)F (centres unmarked) [Compound 21]"
  LXR activation, fold change over DMSO (fold change over DMSO): 0.7
- compound: "CS(=O)(=O)N1CCN(Cc2ccc(-c3ccc(C(O)(C(F)(F)F)C(F)(F)F)cc3)cc2)CC1 [Compound 28]"
  LXR activation, fold change over DMSO (fold change over DMSO): 1.5
- compound: "OC(c1ccc(-c2ccc(CN3CCC(Cc4ccc5c(c4)OCO5)CC3)cc2)cc1)(C(F)(F)F)C(F)(F)F [Compound 88]"
  LXR activation, fold change over DMSO (fold change over DMSO): 1.3
- compound: "O=C(C1CCCO1)N1CCN(Cc2ccc(-c3ccc(C(O)(C(F)(F)F)C(F)(F)F)cc3)cc2)CC1 (centres unmarked) [Compound 16]"
  LXR activation, fold change over DMSO (fold change over DMSO): 1.4
- compound: "O=C(c1cscn1)N1CCN(Cc2ccc(-c3ccc(C(O)(C(F)(F)F)C(F)(F)F)cc3)cc2)CC1 [Compound 116]"
  LXR activation, fold change over DMSO (fold change over DMSO): 0.81
- compound: "OC(c1ccc(-c2ccc(CN3CCN(Cc4nc5ccccc5s4)CC3)cc2)cc1)(C(F)(F)F)C(F)(F)F [Compound 42]"
  LXR activation, fold change over DMSO (fold change over DMSO): 1
- compound: "OC(c1ccc(-c2ccc(CN3CCN(c4ccncc4)CC3)cc2)cc1)(C(F)(F)F)C(F)(F)F [Compound 44]"
  LXR activation, fold change over DMSO (fold change over DMSO): 1
- compound: "Cc1cc(CN2CCN(Cc3ccc(-c4ccc(C(O)(C(F)(F)F)C(F)(F)F)cc4)cc3)CC2)ccn1 [Compound 43]"
  LXR activation, fold change over DMSO (fold change over DMSO): 1
- compound: "OC(c1ccc(-c2ccc(CN3CCN(Cc4ccncc4Br)CC3)cc2)cc1)(C(F)(F)F)C(F)(F)F [Compound 59]"
  LXR activation, fold change over DMSO (fold change over DMSO): 4
- compound: "O=S(=O)(Cc1ccccc1)N1CCN(Cc2ccc(-c3ccc(C(O)(C(F)(F)F)C(F)(F)F)cc3)cc2)CC1 [Compound 30]"
  LXR activation, fold change over DMSO (fold change over DMSO): 2
- compound: "OC(c1ccc(-c2ccc(CN3CCN(Cc4cccs4)CC3)cc2)cc1)(C(F)(F)F)C(F)(F)F [Compound 19]"
  LXR activation, fold change over DMSO (fold change over DMSO): 1.5
